- target.of.assay: UniProt:P40337
- assay.explanation: VHL fluorescence polarization (FP) competition assay
- Format: binding
- condition.context: 10% in DMSO
reported.property: log10 of IC50 (log10 of the value in µM)
Note the log scale: values are log10 of IC50 expressed in µM.

>  <compound>
Cc1ncsc1-c1ccc(CNC(=O)[C@@H]2C[C@@H](O)CN2C(=O)[C@@H](N2Cc3ccccc3C2=O)C(C)(C)C)cc1 [Example 65]

>  <target.of.assay>
UniProt:P40337

>  <log10 of IC50>
-0.24

$$$$
>  <compound>
Cc1ncsc1-c1ccc(CNC(=O)[C@@H]2C[C@@H](O)CN2C(=O)[C@H](CS)N2Cc3ccccc3C2=O)cc1 [Example 48]

>  <target.of.assay>
UniProt:P40337

>  <log10 of IC50>
0.67

$$$$
>  <compound>
COc1ccc(C(=O)N2C[C@H](O)C[C@H]2C(=O)NCc2ccc(-c3scnc3C)cc2)c(C)c1 [Example 88]

>  <target.of.assay>
UniProt:P40337

>  <log10 of IC50>
1.59

$$$$

Request: log10 of IC50 for COc1ccc(CNC(=O)[C@@H]2C[C@@H](O)CN2C(=O)[C@H](C(C)C)N2Cc3ccccc3C2=O)cc1 [Example 81] ?
Result: 2.57

Request: log10 of IC50 for Cc1ncsc1-c1ccc(CNC(=O)[C@@H]2C[C@@H](O)CN2C(=O)[C@H](C(C)C)N2Cc3ccccc3C2=O)cc1 [Example 6] ?
Result: 0.17

Request: log10 of IC50 for COc1cccc(C(=O)N2C[C@H](O)C[C@H]2C(=O)NCc2ccc(-c3scnc3C)cc2)c1 [Example 63] ?
Result: 1.72

Request: log10 of IC50 for Cc1ncsc1-c1ccc(CNC(=O)[C@@H]2C[C@@H](O)CN2C(=O)[C@H]([C@H](C)O)N2Cc3ccccc3C2=O)cc1 [Example 45] ?
Result: 2.67

* * *

- target.of.assay: VHL (Homo sapiens (Human))
- assay.explanation: VHL fluorescence polarization (FP) competition assay
- Format: binding
- condition.context: 1% in DMSO
// reported log10(IC50) for each item listed
Note the log scale: values are log10 of IC50 expressed in µM.

Before answering, review these 5 worked examples.
>  <molecule>
Cc1ncsc1-c1ccc(CNC(=O)[C@@H]2C[C@@H](O)CN2C(=O)C(C)(C)N2Cc3ccccc3C2=O)cc1

>  <target.of.assay>
VHL (Homo sapiens (Human))

>  <reported.measurement>
4.29

$$$$
>  <molecule>
COc1ccc(C)c(C(=O)N2C[C@H](O)C[C@H]2C(=O)NCc2ccc(-c3scnc3C)cc2)c1

>  <target.of.assay>
VHL (Homo sapiens (Human))

>  <reported.measurement>
1.37

$$$$
>  <molecule>
C=Cc1ncsc1-c1ccc(CNC(=O)[C@@H]2C[C@@H](O)CN2C(=O)[C@H](C(C)C)N2Cc3ccccc3C2=O)cc1

>  <target.of.assay>
VHL (Homo sapiens (Human))

>  <reported.measurement>
0.09

$$$$
>  <molecule>
Cc1ncn(C)c1-c1ccc(CNC(=O)[C@@H]2C[C@@H](O)CN2C(=O)[C@H](C(C)C)N2Cc3ccccc3C2=O)cc1

>  <target.of.assay>
VHL (Homo sapiens (Human))

>  <reported.measurement>
1.53

$$$$
>  <molecule>
Cc1ncsc1-c1ccc(CNC(=O)C2(C)C[C@@H](O)CN2C(=O)[C@H](C(C)C)N2Cc3ccccc3C2=O)cc1 (stereo partly shown)

>  <target.of.assay>
VHL (Homo sapiens (Human))

>  <reported.measurement>
0.23

$$$$

Here is another molecule to look at.
Request: log10(IC50) for `Cc1ncsc1-c1ccc(CNC(=O)[C@H]2C[C@H](O)CN2C(=O)[C@@H](CSSC[C@H](NC(=O)CCC(C)C)C(=O)N2C[C@H](O)C[C@H]2C(=O)NCc2ccc(-c3scnc3C)cc2)NC(=O)CCC(C)C)cc1` ?
Result: 0.16

* * *

- target.of.assay: UniProtKB P40337
- assay.explanation: VHL fluorescence polarization (FP) competition assay
- Format: binding
- condition.context: 1% in DMSO

>  <molecule>
CCC1(C(=O)NCc2ccc(-c3scnc3C)cc2)C[C@@H](O)CN1C(=O)c1cccc(OC)c1 (stereo partly drawn) [Example 67]

>  <target.of.assay>
UniProtKB P40337

>  <VHL FP Assay IC50>
Not Active

$$$$
>  <molecule>
Cc1ncsc1-c1ccc(CNC(=O)[C@@H]2CC(=O)CN2C(=O)[C@H](C(C)C)N2Cc3ccccc3C2=O)cc1 [Example 61]

>  <target.of.assay>
UniProtKB P40337

>  <VHL FP Assay IC50>
Not Active

$$$$
>  <molecule>
Cc1ncsc1-c1ccc(CNC(=O)[C@@H]2C[C@@H](S)CN2C(=O)[C@H](C(C)C)N2Cc3ccccc3C2=O)cc1 [Example 119]

>  <target.of.assay>
UniProtKB P40337

>  <VHL FP Assay IC50>
Not Active

$$$$

* * *

- target.of.assay: VHL (Homo sapiens (Human))
- assay.explanation: VHL fluorescence polarization (FP) competition assay
- Format: binding
- condition.context: 1% in DMSO

>  <compound>
COc1cccc(C(=O)N2C[C@H](O)CC2(C)C(=O)NCc2ccc(-c3scnc3C)cc2)c1 (stereo partly shown) [Example 66]

>  <target.of.assay>
VHL (Homo sapiens (Human))

>  <VHL FP Assay IC50>
Not Active

$$$$
>  <compound>
Cc1ncsc1-c1ccc(CNC(=O)C2(C)C[C@@H](O)CN2C(=O)[C@H](C(C)C)N2Cc3ccccc3C2=O)cc1 (stereo partly shown) [Example 131]

>  <target.of.assay>
VHL (Homo sapiens (Human))

>  <VHL FP Assay IC50>
Not Active

$$$$
>  <compound>
Cc1ncsc1-c1ccc(CNC(=O)[C@@H]2C[C@](C)(O)CN2C(=O)[C@H](C(C)C)N2Cc3ccccc3C2=O)cc1 [Example 62]

>  <target.of.assay>
VHL (Homo sapiens (Human))

>  <VHL FP Assay IC50>
Not Active

$$$$

* * *

- target.of.assay: VHL (Homo sapiens (Human), UniProt P40337)
- assay.explanation: VHL fluorescence polarization (FP) competition assay
- Format: binding
- condition.context: 10% in DMSO
// reported pIC50 for each item listed
FYI, pIC50 means -log10 of a concentration in mol per litre.

Before answering, review these 5 worked examples.
>  <smiles.data>
Cc1ncsc1-c1ccc(CNC(=O)[C@@H]2C[C@@H](O)CN2C(=O)[C@@H](NC(=O)C2CCCCC2)C(C)(C)C)cc1

>  <pIC50>
5.26

$$$$
>  <smiles.data>
Cc1ncsc1-c1ccc(CNC(=O)[C@@H]2C[C@@H](O)CN2C(=O)[C@@H](NC(=O)CCC(C)C)C2CCCCC2)cc1

>  <pIC50>
5.83

$$$$
>  <smiles.data>
Cc1ncsc1-c1ccc(CNC(=O)[C@@H]2C[C@@H](O)CN2C(=O)[C@H](C(C)C)N2Cc3c(F)cccc3C2=O)cc1

>  <pIC50>
5.97

$$$$
>  <smiles.data>
Cc1ncsc1-c1ccc(CNC(=O)[C@@H]2C[C@@H](O)CN2C(=O)[C@H](C2CCCC2)N2Cc3ccccc3C2=O)cc1

>  <pIC50>
5.96

$$$$
>  <smiles.data>
Cc1ncsc1-c1ccc(CNC(=O)[C@@H]2C[C@@H](O)CN2C(=O)C2(N3Cc4ccccc4C3=O)CCCC2)cc1

>  <pIC50>
3.63

$$$$

Here is another molecule to look at.
Request: pIC50 for `Cc1ncsc1-c1ccc(CNC(=O)[C@@H]2C[C@@H](O)CN2C(=O)C2(N3Cc4ccccc4C3=O)CCCCC2)cc1` ?
Result: 5.92

* * *

// reported log10(IC50) for each item listed
- target.of.assay: UniProt P40337
- assay.explanation: VHL fluorescence polarization (FP) competition assay
- Type: binding
- condition.context: 1% in DMSO
Note the log scale: values are log10 of IC50 expressed in nM.

>  <compound>
COc1ccccc1CCC(=O)N[C@H](C(=O)N1C[C@H](O)C[C@H]1C(=O)NCc1ccc(-c2scnc2C)cc1)C(C)(C)C [Example 83]

>  <target.of.assay>
UniProt P40337

>  <reported.measurement>
2.80

$$$$

Request: log10(IC50) for COC1=CC(=O)N([C@H](C(=O)N2C[C@H](O)C[C@H]2C(=O)NCc2ccc(-c3scnc3C)cc2)C(C)C)C1 [Example 111] ?
Result: 2.93

Request: log10(IC50) for Cc1ncsc1-c1ccc(CNC(=O)[C@@H]2C[C@@H](O)CN2C(=O)[C@H](C(C)C)N2Cc3ccc(F)cc3C2=O)cc1 [Example 9] ?
Result: 2.49

Request: log10(IC50) for Cc1ncsc1-c1ccc(CNC(=O)[C@@H]2C[C@@H](O)CN2C(=O)[C@H](C(C)C)N2CCCC2=O)cc1 [Example 98] ?
Result: 3.62

Request: log10(IC50) for CC(C)[C@@H](C(=O)N1C[C@H](O)C[C@H]1C(=O)NCc1ccc(C2CCCCC2)cc1)N1Cc2ccccc2C1=O [Example 117] ?
Result: 4.19

Request: log10(IC50) for Cc1ncsc1-c1ccc(CNC(=O)[C@@H]2C[C@@H](O)CN2C(=O)[C@H](C(C)C)N2Cc3ccccc3C2=O)cc1F [Example 93] ?
Result: 3.08

Request: log10(IC50) for Cc1ncsc1-c1ccc(CNC(=O)[C@@H]2C[C@@H](O)CN2C(=O)[C@H](C(C)C)N2Cc3ccccc3C2=O)c(F)c1 [Example 82] ?
Result: 3.21

Request: log10(IC50) for Cc1ncsc1-c1ccc(CNC(=O)[C@@H]2C[C@@H](O)CN2C(=O)[C@H](C(C)C)N2Cc3c(Cl)cccc3C2=O)cc1 [Example 68] ?
Result: 2.99

Request: log10(IC50) for Cc1ncsc1-c1ccc(CNC(=O)[C@@H]2C[C@@H](O)CN2C(=O)[C@@H](NC(=O)CC(C)C)C(C)(C)C)cc1 [Example 18] ?
Result: 2.93

Request: log10(IC50) for Cc1ncsc1-c1ccc(CNC(=O)[C@@H]2C[C@@H](O)CN2C(=O)c2ccccc2)cc1 [Example 64] ?
Result: 4.23

Request: log10(IC50) for CCC[C@H](NC(C)=O)C(=O)N1C[C@H](O)C[C@H]1C(=O)NCc1ccc(-c2scnc2C)cc1 [Example 148] ?
Result: 3.79

Request: log10(IC50) for CC(C)[C@@H](C(=O)N1C[C@H](O)C[C@H]1C(=O)NCc1ccc(-c2cncn2C)cc1)N1Cc2ccccc2C1=O [Example 96] ?
Result: 4.55

Request: log10(IC50) for Cc1ncsc1-c1ccc(CNC(=O)[C@@H]2C[C@@H](O)CN2C(=O)[C@H](C(C)C)N2Cc3cc(Br)ccc3C2=O)cc1 [Example 25] ?
Result: 3.12

Values from patent US10730870B2
